Assay: Pharmacokinetic study, plasma levels by LC/MS/MS after s.c. dosing
Assay type: in vivo, rat
Conditions: rat, plasma, sc; male Sprague Dawley rats (N = 3), 5.6 mg/kg s.c.; summary data previously described [32]
reported_metric: Tmax (min)
Write it as a number; the unit min goes unstated.

Task: Which Tmax value belongs to CNC(C)C(=O)c1ccc(C)cc1 (stereo not shown) ?
Result: 15

====

Experiment: Pharmacokinetic study, plasma levels by LC/MS/MS after s.c. dosing
Assay type: in vivo, rat
Conditions: rat, plasma, sc; male Sprague Dawley rats (N = 3), 5.6 mg/kg s.c.; summary data previously described [32]
reported_metric: AUC(0-inf) (ng·h/mL)
Write it as a number; the unit ng·h/mL goes unstated.

Task: Which AUC(0-inf) value belongs to CNC(C)C(=O)c1ccc(C)cc1 (stereo not shown) ?
Result: 1170

====

Assay: Pharmacokinetic study, plasma levels by LC/MS/MS after s.c. dosing
Type: in vivo, rat
Settings: Wistar Han, rat, plasma, sc; male Wistar rats (N = 3), 5.6 mg/kg s.c.
reported_metric: Tmax (min)
Write it as a number; the unit min goes unstated.

Task: Which Tmax value belongs to CNC(C)C(=O)c1ccc(C)cc1 (stereo not shown) ?
Result: 15
